Data provenance is PubChem BioAssay.

System: Human papillomavirus type 1a E7 protein (residues 1-88)
Assay: HPV1a E7 small-molecule binders, primary screen, biochemical, small-molecule microarray, residues 1-88, 635 nm (AID 1129)
Details: small-molecule microarray binding, fluorescence 635 nm; higher = more signal
test_readout: composite z-score

{"record_smiles": "CCCC[C@@H]1C[C@H]1[C@@H](NC(=O)c1ccccc1)c1ccc(Cl)cc1", "value_measured": -1.52}
{"record_smiles": "COCCCNC(=O)[C@@]1(Sc2ccc(C)cc2)CC(=O)N(Cc2cc(C(F)(F)F)cc(C(F)(F)F)c2)[C@@H]1c1ccc(CO)cc1", "value_measured": 0.566}
{"record_smiles": "COC(=O)C[C@H]1O[C@]2(C(=O)N(C)c3ccccc32)[C@@H](C)[C@@H]1[Si](C)(C)c1ccc(C)cc1", "value_measured": 1.12}
{"record_smiles": "C=CCOC(=O)[C@@H]1[C@H]2C(=O)O[C@H](c3ccccc3)[C@H](c3ccccc3)N2[C@H](c2ccc(OCCOC(=O)[C@H]3C[C@H]4C(=O)N[C@@H](CCCCNC(C)=O)C(=O)N4[C@H]3c3cccc(OCCO)c3)cc2)[C@@]12C(=O)Nc1ccc(I)cc12", "value_measured": 1.19}
{"record_smiles": "[N-]=[N+]=NCc1ccccc1[C@H]1OC(c2ccc(OCCCO)cc2)=N[C@@]1(CCS(=O)(=O)c1ccccc1)C(N)=O", "value_measured": 1.18}
{"record_smiles": "COCCOC(=O)N1C(=O)[C@@]2(c3cc(C#Cc4ccc(OC)cc4)ccc31)[C@H](C(=O)NC[C@H](O)c1ccccc1)[C@H]1C(=O)O[C@H](c3ccccc3)[C@H](c3ccccc3)N1[C@@H]2c1ccc(O)cc1", "value_measured": 1.16}

* * *

Assay: COS7 lysate on small-molecule microarray, probe aHis, 635 nm (AID 1123);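 also: z-score combines 667nm fluorescence intensity with signal-to-noise per printed compound spot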
Conditions: COS7 cell lysate, fluorescence, higher = more signal
Each record here notes measured composite z-score.
test_readout: composite z-score

{"molecule": "CC(C)N1CC=CC23O[C@@H]4C=CCCOC(=O)C4[C@H]2C(=O)N(CCO)[C@@H]3C1=O (stereo partly drawn)", "test_readout": "composite z-score", "value_measured": -0.548}
{"molecule": "CCCC[C@@H]1C[C@H]1[C@@H](NC(=O)c1cccnc1)c1ccc(-c2ccccc2)cc1", "test_readout": "composite z-score", "value_measured": 0.208}
{"molecule": "O=C1OCC=C[C@H]2OC34C=CCN(c5ccc(Cl)cc5)C(=O)[C@H]3N(CCCCCO)C(=O)[C@@H]4[C@@H]12 (stereo partly drawn)", "test_readout": "composite z-score", "value_measured": -0.347}
{"molecule": "COC(=O)Cn1c(C(=O)N2CCCC2)cc2c1C[C@H]1CN(C(=O)c3ccccc3)[C@@](Cc3ccc(F)cc3)(C(=O)OC)[C@@H]21", "test_readout": "composite z-score", "value_measured": 0.965}
{"molecule": "C=CCN1C(=O)[C@]2(CC=C)N=C(c3ccc(OCCCO)cc3)O[C@@H]2c2ccccc21", "test_readout": "composite z-score", "value_measured": 1.35}
{"molecule": "O=c1cccc(-c2cccc(Cl)c2)o1", "test_readout": "composite z-score", "value_measured": 0.043}
{"molecule": "COCCOC(=O)N1C(=O)[C@@]2(c3cc(C#CC4(O)CCCCCC4)ccc31)[C@H](c1ccccc1OCCO)N1[C@H](c3ccccc3)[C@H](c3ccccc3)OC(=O)[C@H]1[C@@H]2C(N)=O", "test_readout": "composite z-score", "value_measured": 0.994}
{"molecule": "CC(=O)N1Cc2ccccc2C[C@]2(N=C(c3ccc(OCCCO)cc3)O[C@@H]2c2ccccc2)C1=O", "test_readout": "composite z-score", "value_measured": 2.87}

* * *

Target: Fibroblast growth factor 2 (Homo sapiens)
Assay: FGF2 binders on small-molecule microarrays, primary screen, biochemical, small-molecule microarray, 635/667 nm fluorescence (AID 1133)
Conditions: small-molecule microarray binding, FGF2, fluorescence 635/667; higher = more signal
# cutoff -0.7 applies to composite z-score; >= gives y, < gives n

{"compound": "Cc1c(NC(=O)/C(C#N)=C/C=C/c2ccc(N(C)C)cc2)c(=O)n(-c2ccccc2)n1C", "class_assignment": "y"}
{"compound": "C=CC[C@H](OC(=O)Nc1ccc(OC)cc1)c1ccc(O)c2ccccc12", "class_assignment": "y"}
{"compound": "Cc1ccc(S[C@]2(C(=O)NCc3ccccc3)CC(=O)N(C(C)C)[C@@H]2c2ccc(CO)cc2I)cc1", "class_assignment": "n"}
{"compound": "COc1ccc(C#Cc2ccc3c(c2)[C@]2(C(=O)N3)[C@H](C(=O)N3CCc4cc(OC)c(OC)cc4C3)[C@H]3C(=O)O[C@H](c4ccccc4)[C@H](c4ccccc4)N3[C@@H]2c2ccc(O)cc2)cc1", "class_assignment": "y"}
{"compound": "CCOC(=CC(=O)OC)CC(O)c1cccc(Cl)c1 (stereo not drawn)", "class_assignment": "n"}
{"compound": "C=CC[C@@]1(C(=O)N2CCCCC2)N=C(c2ccc(OCCCO)cc2)O[C@@H]1c1ccccc1", "class_assignment": "y"}
{"compound": "CCN(CC)c1ccc(N2CC=CC34O[C@@H]5/C=C\\CCC(C)OC(=O)C5[C@H]3C(=O)N(CCO)[C@@H]4C2=O)cc1 (stereo partly drawn)", "class_assignment": "n"}
{"compound": "CON(C)C(=O)C=C1C[C@@H](c2cccc(Cl)c2)O[C@@H](c2cccc(Cl)c2)O1", "class_assignment": "y"}

* * *

Experiment: small-molecule binders of probe aNOTCH3, primary screen, biochemical, small-molecule microarray, 635/667 nm fluorescence (AID 1120);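 also: probe is a biotin-tagged antibody raised against NOTCH3 rather than NOTCH3 protein; score merges spot fluorescence near 667 nm with spot signal to noise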
Conditions: higher = more signal
# cutoff 0.1 applies to composite z-score; >= gives 1, < gives -1

{"molecule": "COC(=O)[C@H](Cc1ccccc1)N1CC(/C=C/C2CC2)=C[C@@H]1[C@@H](O)Cc1ccccc1", "class_assignment": 1}
{"molecule": "[N-]=[N+]=NCc1ccccc1C[C@]1(C(=O)NCC(O)CO)N=C(c2ccc(OCCCO)cc2)O[C@H]1c1ccccc1CN=[N+]=[N-] (stereo partly specified)", "class_assignment": 1}
{"molecule": "COCCOC(=O)N1C(=O)[C@@]2(c3cc(C#CCNC(N)=O)ccc31)[C@H](C(=O)N1CCCCCCC1)[C@H]1C(=O)O[C@H](c3ccccc3)[C@H](c3ccccc3)N1[C@@H]2c1ccc(O)cc1", "class_assignment": 1}
{"molecule": "CC(=O)NCCCC[C@@H]1NC(=O)[C@@H]2C[C@H](C(=O)O)[C@H](c3ccc(O)cc3)N2C1=O", "class_assignment": -1}
{"molecule": "C=CCOC(=O)[C@H]1[C@@H]2C(=O)O[C@@H](c3ccccc3)[C@@H](c3ccccc3)N2[C@@H](c2ccc(OCCOC(=O)[C@H]3C[C@H]4C(=O)N[C@@H](Cc5ccccc5)C(=O)N4[C@H]3c3ccc(O)cc3)cc2)[C@]12C(=O)Nc1ccc(I)cc12", "class_assignment": 1}
{"molecule": "C=CCN1C(=O)[C@@]2(CCC(=O)OC(C)(C)C)N=C(c3ccc(OCCCO)cc3)O[C@H]2c2ccccc21", "class_assignment": 1}

* * *

Tested on: Sam68 (KHDRBS1)
Assay: Sam68 small-molecule binders, primary screen, biochemical, small-molecule microarray, 635 nm fluorescence (AID 1125);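 also: score merges 667 nm channel intensity with signal to noise over triplicate slides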
Conditions: small-molecule microarray binding, higher = more signal
Each record here notes measured composite z-score.

{"record_smiles": "CCOC(=O)C[C@H]1[C@H](OC(=O)c2ccc(C(=O)c3ccccc3)cc2)[C@@H](NC(=O)c2ccc3ccccc3c2)c2cc(OCCCO)ccc2N1C(=O)c1ccccc1", "test_target": "Sam68 (KHDRBS1)", "composite z-score": 1.32}
{"record_smiles": "C=CCN1C(=O)[C@@]2(O[C@@H](CCO)[C@H]([Si](C)(C)c3ccc(OC)cc3)[C@H]2C)c2cc(N3C(=O)c4ccccc4Oc4ccccc43)ccc21", "test_target": "Sam68 (KHDRBS1)", "composite z-score": 0.522}
{"record_smiles": "Cc1ccc(S[C@]2(C(=O)NCc3ccccc3)CC(=O)N(C(C)C)[C@@H]2c2ccc(CO)cc2I)cc1", "test_target": "Sam68 (KHDRBS1)", "composite z-score": -0.29}

* * *

Each record here notes measured composite z-score.
Tested on: Chordin-like protein 2 (CHRDL2)
Assay: CHRDL2 small-molecule binders, primary screen, biochemical, small-molecule microarray, 635 nm fluorescence (AID 1126);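 also: printed compound slides probed with Chrdl2 protein at 4 µg/mL for 1 h at 4 C; score merges 667 nm emission intensity with signal to noise over three replicate slides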
Conditions: small-molecule microarray binding, fluorescence 635 nm; higher = more signal

{"molecule": "COc1ccc(NC(=O)O[C@H]2[C@H](OC(=O)Nc3ccc4c(c3)OCO4)[C@@H](OC(=O)Nc3ccc4c(c3)OCO4)[C@@H](OC)O[C@@H]2CO)cc1", "test_target": "Chordin-like protein 2 (CHRDL2)", "composite z-score": 0.143}
{"molecule": "COCCOC(=O)N1C(=O)[C@@]2(c3cc(C#Cc4ccc(OC)cc4)ccc31)[C@H](C(=O)N1CCCCCCC1)[C@H]1C(=O)O[C@H](c3ccccc3)[C@H](c3ccccc3)N1[C@@H]2c1ccc(O)cc1", "test_target": "Chordin-like protein 2 (CHRDL2)", "composite z-score": 0.643}
{"molecule": "O=C1O[C@@H](c2ccccc2)[C@@H](c2ccccc2)N2[C@@H](c3ccccc3OCCO)[C@]3(C(=O)Nc4ccc(C#CC5=CCCCC5)cc43)[C@@H](C(=O)NC[C@H](O)c3ccccc3)[C@H]12", "test_target": "Chordin-like protein 2 (CHRDL2)", "composite z-score": 0.478}
{"molecule": "COC(=O)[C@@]1(Cc2ccccc2)[C@H]2c3cc(C(=O)N4CCCC4)n(Cc4ccsc4Br)c3C[C@H]2CN1C(=O)c1ccccc1", "test_target": "Chordin-like protein 2 (CHRDL2)", "composite z-score": -0.265}
{"molecule": "Cc1ccc(S[C@]2(C(=O)NCC(F)(F)F)CC(=O)N(Cc3ccccc3)[C@@H]2c2ccc(CO)cc2)cc1", "test_target": "Chordin-like protein 2 (CHRDL2)", "composite z-score": -1.23}
{"molecule": "Cc1ccc(S[C@]2(C(=O)NC(C)C)CC(=O)N(C3Cc4ccccc4C3)[C@@H]2c2ccc(CO)cc2I)cc1", "test_target": "Chordin-like protein 2 (CHRDL2)", "composite z-score": 0.02}
{"molecule": "C[C@]1(C(=O)O)c2ccccc2C(=O)N(Cc2ccccc2)[C@H]1c1ccc(CO)cc1", "test_target": "Chordin-like protein 2 (CHRDL2)", "composite z-score": -1.48}
{"molecule": "COCCOC(=O)N1C(=O)[C@@]2(c3cc(C#CC4(O)CCCCCC4)ccc31)[C@H](C(N)=O)[C@H]1C(=O)O[C@H](c3ccccc3)[C@H](c3ccccc3)N1[C@@H]2c1ccccc1OCCO", "test_target": "Chordin-like protein 2 (CHRDL2)", "composite z-score": 0.369}
{"molecule": "O=C1O[C@@H](c2ccccc2)[C@@H](c2ccccc2)N2[C@@H](c3ccc(O)cc3)[C@]3(C(=O)Nc4ccc(C#CCCO)cc43)[C@@H](C(=O)Nc3nc4ccccc4s3)[C@H]12", "test_target": "Chordin-like protein 2 (CHRDL2)", "composite z-score": -0.0623}
{"molecule": "CCOC(=O)C[C@H]1[C@H](OC(=O)c2ccc(C(=O)c3ccccc3)cc2)[C@@H](NC(=O)c2ccc3ccccc3c2)c2cc(OCCCO)ccc2N1C(=O)c1ccccc1", "test_target": "Chordin-like protein 2 (CHRDL2)", "composite z-score": -0.257}
{"molecule": "CC(=O)n1cc(C(O)C2C=CC3C(=O)N(c4ccccc4)C(=O)C3N2Nc2ccccc2)c2ccccc21 (stereo not drawn)", "test_target": "Chordin-like protein 2 (CHRDL2)", "composite z-score": 0.8}
{"molecule": "CC[C@@H]1[C@H]2C3C(=O)N(CC)C(=O)C3CC(=O)[C@H]2[C@H](c2ccc(C)cc2)N1S(=O)(=O)c1ccc(C)cc1 (stereo partly drawn)", "test_target": "Chordin-like protein 2 (CHRDL2)", "composite z-score": -0.49}
{"molecule": "COCCCNC(=O)[C@]1(CCC(=O)OC(C)(C)C)N=C(c2ccc(OCCCO)cc2)O[C@@H]1c1ccccc1", "test_target": "Chordin-like protein 2 (CHRDL2)", "composite z-score": -0.0833}
